From: the supplement of paper PMC10567573

B1: ESRRG (parent)
chain: YSCPATNECEITKRRRKSCQACRF

Variants of: B1
assayProtocol: protein stability index of a GFP-peptide fusion (GPS, HEK-293T) (PSI 1-6); higher = more stable;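 further: lentivirally expressed fusions sorted by FACS into six bins by GFP to DsRed ratio, PSI derived from sequencing read proportions per bin multiplied by bin number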
measurementParameters: c terminus: a fixed tail appended
We begin with a simple list: items and their reported protein stability index.

[
  {
    "variantDescriptor": "K17S",
    "protein stability index": 3
  },
  {
    "variantDescriptor": "Q20A",
    "protein stability index": 3.52
  },
  {
    "variantDescriptor": "I11M",
    "protein stability index": 3.14
  },
  {
    "variantDescriptor": "C19M",
    "protein stability index": 3.42
  },
  {
    "variantDescriptor": "C19Y",
    "protein stability index": 3.44
  }
]
